- Tested on: Balb/c 3T3 mouse fibroblasts
- experiment: 3T3 in vitro phototoxicity assay (Neutral Red uptake)
- Assay type: cell-based
- conditions: Factor=IC50(-UV)/IC50(+UV); cut-off >5
measureName: Phototoxicity factor

As a guide, the following entries are already answered.
CO[C@@H]1CN(c2ccc(CCN3CCN4[C@@H](C3)CN(c3ccc(C#N)n5nccc35)C[C@H]4C)cc2)C[C@H]1N: 1.53
CO[C@@H]1CN(c2ccc(CCN3CCN4[C@@H](C3)CN(c3ccc(C#N)c5ncccc35)C[C@H]4C)cn2)C[C@H]1N: >2.53
C[C@@H]1CN(c2ccc(C#N)c3ncccc23)C[C@@H]2CN(Cc3ccc4c(c3)CNCC4)CCN21: >1.39
[2H]c1ccc2c(N3C[C@@H]4CN(CCc5ccc(N6C[C@H]7NCCO[C@@H]7C6)nc5)CCN4[C@H](C)C3)ccc(C#N)c2n1: >1.9
C[C@@H]1CN(c2ccc(C#N)c3ncccc23)C[C@@H]2CN(c3cccc4c3CNC4)CCN21: >3.9

Now look at this one.
Phototoxicity factor for [2H]c1ccc2c(N3C[C@@H]4CN(c5ccc([C@@H]6CNCCO6)cc5)CCN4[C@@H](C)C3)ccc(C#N)c2n1 is >1.67

====

- measuredOn: human TLR7 (Homo sapiens)
- Sequence (Q9NYK1 27-1049): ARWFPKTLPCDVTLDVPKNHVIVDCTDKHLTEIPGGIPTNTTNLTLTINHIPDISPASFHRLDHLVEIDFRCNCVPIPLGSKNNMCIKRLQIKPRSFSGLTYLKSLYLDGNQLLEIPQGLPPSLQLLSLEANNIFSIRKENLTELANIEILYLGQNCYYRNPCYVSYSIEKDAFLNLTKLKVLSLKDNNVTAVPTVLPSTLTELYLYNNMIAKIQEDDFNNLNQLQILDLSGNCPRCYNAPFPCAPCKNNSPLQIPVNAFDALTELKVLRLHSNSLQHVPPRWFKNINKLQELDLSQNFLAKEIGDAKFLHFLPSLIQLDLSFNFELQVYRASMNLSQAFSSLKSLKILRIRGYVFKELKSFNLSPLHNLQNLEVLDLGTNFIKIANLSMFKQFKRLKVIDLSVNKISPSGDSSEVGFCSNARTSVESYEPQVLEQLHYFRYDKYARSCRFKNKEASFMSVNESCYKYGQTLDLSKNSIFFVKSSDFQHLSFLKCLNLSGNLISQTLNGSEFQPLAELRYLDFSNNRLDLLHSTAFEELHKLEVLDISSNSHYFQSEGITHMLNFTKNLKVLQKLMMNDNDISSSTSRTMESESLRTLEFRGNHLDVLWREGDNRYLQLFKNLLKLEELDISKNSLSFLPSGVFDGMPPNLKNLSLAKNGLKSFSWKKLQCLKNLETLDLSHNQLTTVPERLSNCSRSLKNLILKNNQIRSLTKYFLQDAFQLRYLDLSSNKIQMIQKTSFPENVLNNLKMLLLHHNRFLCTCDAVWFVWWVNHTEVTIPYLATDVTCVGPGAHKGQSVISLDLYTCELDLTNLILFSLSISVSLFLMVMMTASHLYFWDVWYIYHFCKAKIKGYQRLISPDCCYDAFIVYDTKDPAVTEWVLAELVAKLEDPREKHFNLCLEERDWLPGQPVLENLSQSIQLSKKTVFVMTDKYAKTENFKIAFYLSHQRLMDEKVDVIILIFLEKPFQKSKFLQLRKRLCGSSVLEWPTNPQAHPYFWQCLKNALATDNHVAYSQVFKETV
- experiment: HEK293-Blue-hTLR-7 cells assay
- conditions: HEK293-Blue-hTLR7 cells, R848 stimulation, 20 hrs, SEAP reporter; read-out: HEK/hTLR7 IC50
pIC50: −log10 of the molar value.
Decision: pIC50 >= 8 yields rule met, all other cases yield rule not met.

Answered cases to consult:
Cc1cc(N2CCNCC2)ncc1N1CCN2CCN(c3ccc(C#N)c4ncccc34)CC2C1 (centres unmarked): rule met
CO[C@@H]1CN(c2ccnc(N3CCN4[C@@H](C3)CN(c3ccc(C#N)c5ncccc35)C[C@H]4C)n2)C[C@H]1N: rule not met
C[C@@H]1CN(c2ccc(C#N)c3ncccc23)C[C@@H]2CN(CCc3ccc(N4CCNCC4)cc3)CCN21: rule met
C[C@@H]1CN(c2ccc(C#N)c3ncccc23)C[C@@H]2CN(Cc3ccc(N4CCCNCC4)nc3)CCN21: rule not met
C[C@@H]1CN(c2ccc(C#N)c3ncccc23)C[C@@H]2CN(CCc3ccc(N4CC5(CN(C)C5)C4)nc3)CCN21: rule not met

Q: Item [2H]c1ccc2c(N3C[C@@H]4CN(c5ccc6c(n5)CCNC6)CCN4[C@@H](C)C3)ccc(C#N)c2n1 with pIC50 of 8 or above?
A: rule met

Q: Dear colleague, could you confirm whether C[C@@H]1CN(c2ccc(C#N)c3ncccc23)C[C@@H]2CN(CCc3cccc(N4CCN[C@@H](C)C4)n3)CCN21 has pIC50 at or above 8?
A: rule not met

Q: Reported pIC50 at or above 8? C[C@@H]1CN(c2ccc(C#N)c3ncccc23)C[C@@H]2CN(c3ccnc(N4CC[C@@](C)(N)C4)c3)CCN21
A: rule not met

Q: Determine whether measured pIC50 meets or exceeds 8 for C[C@@H]1CN(c2ccc(C#N)n3ncc(F)c23)C[C@@H]2CN(CCc3ccc(N4CC(C)(N)C4)nc3)CCN21
A: rule not met

Q: Reported pIC50 at or above 8? CO[C@@H]1CN(c2ccc(CCN3CCN4[C@@H](C3)CN(c3ccc(C#N)n5ncc(F)c35)C[C@H]4C)cc2)C[C@H]1N
A: rule not met

Q: Determine whether this compound has pIC50 no lower than 8: [2H]c1ccc2c(N3C[C@@H]4CN(c5ccc(CN6C[C@@H](N)[C@H](OC)C6)c(C)n5)CCN4[C@@H](C)C3)ccc(C#N)c2n1
A: rule not met

Q: Item [2H]c1ccc2c(N3C[C@@H]4CN(c5ccc(CCN6C[C@@H](N)[C@@H](F)C6)nc5)CCN4[C@@H](C)C3)ccc(C#N)c2n1 with pIC50 of 8 or above?
A: rule not met

Q: // inclusive: pIC50 at least 8? input: [2H]c1ccc2c(N3C[C@@H]4CN(c5ncc(N6C[C@H]7NCCO[C@@H]7C6)cc5C)CCN4[C@@H](C)C3)ccc(C#N)c2n1
A: rule met

Q: Reported pIC50 reaches at least 8 for C[C@@H]1CN(c2ccc(C#N)c3ncccc23)C[C@@H]2CN(c3ccnc(N4CCOC[C@H](N)C4)c3)CCN21 ?
A: rule not met

Q: Check the entry [2H]c1ccc2c(N3C[C@@H]4CN(CCc5ccc(N6C[C@@H](N)[C@H](OC)C6)nc5)CCN4[C@H](C)C3)ccc(C#N)c2n1 : does pIC50 equal or exceed 8?
A: rule not met

Q: In plain terms: is recorded pIC50 at least 8 for [2H]c1ccc2c(N3C[C@@H]4CN(c5ncc(N6C[C@@H](N)[C@H](OC)C6)cc5C)CCN4[C@H](C)C3)ccc(C#N)c2n1 ?
A: rule met
